- test name: Inhibition of isocitrate lyase
measured attribute: log10 IC50 (log10 of the value in µM)
log10 IC50, µM

O=C(O)CC[N+](=O)[O-] :: 0.00

Query: Request the reported log10 IC50 associated with CCCCCCCCCCC/C=C/C[C@H](OS(=O)(=O)O)[C@H](O)[C@H](N)CO
Reply: 0.30

Query: Next compound: CCCCCC[C@H]1C[C@H]1CCCCCCCCCC(=O)OC[C@@H](O)COP(=O)([O-])OCC(O)CO.[Na+] (relative stereo)
Reply: 1.94

Query: Let us now turn to CCCCCCCCCC/C=C/C[C@H](OS(=O)(=O)O)[C@H](O)[C@H](N)CO
Reply: 1.30

Query: Next entry: CC(C)CCCCCCCC/C=C/C[C@H](OS(=O)(=O)O)[C@H](O)[C@H](N)CO
Reply: 1.38

Data provenance: ChEMBL document CHEMBL1938237
